Measured optical density, listed per entry.
Target: mouse ACVR2A (mouse, UniProt P27038 20-135, limits assumed); note: test concentration or dose not given here
Sequence (P27038 20-135 limits assumed): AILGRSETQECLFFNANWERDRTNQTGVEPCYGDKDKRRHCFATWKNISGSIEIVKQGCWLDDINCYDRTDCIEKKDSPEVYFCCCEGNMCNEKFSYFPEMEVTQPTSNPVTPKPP
Assay: ELISA
measurementKind: optical density (OD)

| binder | resultNumber |
| --- | --- |
| 369_B08 (antibody, V domains shown, Group II) VH: EVQLLESGGGLVQPGGSLRLSCAASGFTFDSYGMHWVRQAPGKGLEWVSSINYNGGYTSYADSVKGRFTISRDNSKNTLYLQMNSLRAEDTAVYYCARAATWHDTHLDYWGQGTLVTVSS VL: DIQMTQSPSSLSASVGDRVTITCRASQSILSYVNWYQQKPGKAPKLLIYAATSRASGVPSRFSGSGSGTDFTLTISSLQPEDFATYYCQQSYESPLTFGGGTKVEIK | 2.88 |
| 367_B09 (antibody, V domains shown, Group I) VH: EVQLLESGGGLVQPGGSLRLSCAASGFTFDSYGMHWVRQAPGKGLEWVASINYNGGYTSYADSVKGRFTISRDNSKNTLYLQMNSLRAEDTAVYYCARAANWHDTALDYWGQGTLVTVSS VL: DIQMTQSPSSLSASVGDRVTITCRASQSILSYVNWYQQKPGKAPKLVIYAATSRASGVPSRFSGSGSGTDFTLTISSLQPEDFATYYCQQSYENPLTFGGGTKVEIK | 2.43 |
| 370_H08 (antibody, V domains shown, Group I) VH: EVQLLESGGGLVQPGGSLRLSCAASGFTFSSYGMHWVRQAPGKGLEWVASINYNGGYTSYADSVKGRFTISRDNSKNTLYLQMNSLRAEDTAVYYCARAANWHDTHLDYWGQGTLVTVSS VL: DIQMTQSPSSLSASVGDRVTITCRASQSILSYVNWYQQKPGKAPKLLIYAATSRHSGVPSRFSGSGSGTDFTLTISSLQPEDFATYYCQQSYSLPLTFGGGTKVEIK | 3.24 |
